Test: Brain exposure assay in mice (brain-to-plasma ratio after oral administration)
Assay type: in vivo
Settings: male, C57BL/6JNIFDC, mouse, plasma, oral, 100 mg/kg, 6 hr, read-out: Cplasma, free
# cutoff 400 nM applies to concentration at 6 h; >= gives 1, < gives -1

Qu. Is concentration at 6 h for `CN(C)C(=O)N1CCC[C@H](c2ccc(NC(=O)OCc3cnco3)cc2)C1` at or above 400 nM?
Ans. 1

Qu. hey, is concentration at 6 h for this one >= 400 nM? `CN(C)S(=O)(=O)N1CC2(CC(Cc3ccc(NC(=O)OCc4cnco4)cc3F)C2)C1`
Ans. -1

Qu. Is reported concentration at 6 h greater than or equal to 400 nM here: `CN(C)S(=O)(=O)N1CCC(Cc2ccc(NC(=O)OCc3cnco3)cc2)CC1`
Ans. -1

Qu. Would you say `CN(C)C(=O)N1CC2(CC(c3ccc(NC(=O)OCc4cnco4)cc3F)C2)C1` shows concentration at 6 h at minimum 400 nM?
Ans. -1
